Please respond with reported Pseudo-neut IC50 Luciferase for every item in the list.
Biological target: SARS-CoV-2 (Wuhan-Hu-1 strain) spike glycoprotein on pseudotyped virus particles (SARS-CoV-2, UniProt P0DTC2 14-1273)
Test: cell-based or functional assay
Mention the unit after the number when you answer.

binder: Nb16 (VHH) VHH: DVQLVESGGGLVQAGESLRLSCAASGDMFSSNAMAWYRQAPGKQRELVASITSGGNTNYADSVKGRFTISRDNAKNTVYLQMDSLKPEDTAVYYCNGVAYDYSWGRPRNFWGQGTQVTVSS
valueReported: 1.57 nM

Now look at this entry.
Query :: Returns the measured Pseudo-neut IC50 Luciferase for the input binder. Input: Nb9 (VHH) VHH: HVQLVESGGGLVQTGGSLRLSCAFSGYTFSTFPTAWFRQAPGKEREFVAGIRWNGGSRDYTEYADFVKGRFTISRDNAKNMIYLQMISLKPEDTALYYCAASHGVVDGTSVNGYRYWGQGTQVTVSS
Result :: 1.5 nM
